OBSERVED PROPERTY: logP

Previously resolved entries follow.
[[record]]
compound = "Cc1nc2c3c(c(C(=O)N(C)C)cn2c1C(=O)N(C)C)CCC(c1ccccc1)O3 (stereo not drawn)"
result_value = 1.89

[[record]]
compound = "CCOc1cccc(COC(=O)C2C(C=C(C)C(=O)OC)C2(C)C)c1 (stereo not drawn)"
result_value = 4.78

[[record]]
compound = "CC1CCC(C)N1C(=O)Nc1ccccc1 (stereo not drawn)"
result_value = 2.33

[[record]]
compound = "O=C(NC1CCCCCCC1)NS(=O)(=O)c1cnccc1NC1CCCCC1"
result_value = 4.97

[[record]]
compound = "Cc1oc2cc3oc(=O)ccc3cc2c1C"
result_value = 2.93

[[record]]
compound = "OCC1OC(n2cnc3c(NCc4ccccc4)ncnc32)C(O)C1O (stereo not drawn)"
result_value = 1.23


Okay, here is my list. What is logP for each of these?
1. O=C1CCCc2nnc(-c3ccccc3)cc21
2. Cc1ccc(CO)c(C=NNC(=O)c2ccccc2)c1O
3. CCCCC(O)C(CCCCOc1ccc(F)cc1)n1cncn1 (stereo not drawn)
4. C#C[C@]1(O)CC[C@H]2[C@@H]3CCC4=CC(=O)CC[C@@H]4[C@H]3C(=C)C[C@@]21CC
5. CCCCCNC(=O)N1C(=O)N(C)CC1O (stereo not drawn)
6. COc1cc(S(C)=O)ccc1-c1cn2cc(N)cnc2n1 (stereo not drawn)
7. NC1=NCC(COc2ccccc2[N+](=O)[O-])O1 (stereo not drawn)

RESULT:
[2.05, 3.01, 3.38, 3.16, 1.75, 0.37, 0.8]

====

Where a SMILES comes first, the peptide text is derived from it.
OBSERVED PROPERTY: logP
Give bare numbers.

[[record]]
molecule = "CCc1cccc2nc(N)nc(N)c12"
observed_property = "logP"
result_value = 1.69

[[record]]
molecule = "Cc1cc2cc3ccc(=O)oc3c(C)c2o1"
observed_property = "logP"
result_value = 2.93

[[record]]
molecule = "CC(N)C(=O)NC(Cc1c[nH]c2ccccc12)C(=O)O (configuration not stated)"
observed_property = "logP"
result_value = -2.21

[[record]]
molecule = "Cc1oc2cc(C)c3ccc(=O)oc3c2c1C"
observed_property = "logP"
result_value = 3.36

[[record]]
molecule = "CCN(C(C)=O)c1cccc(-c2ccnc3c(C#N)cnn23)c1"
observed_property = "logP"
result_value = 1.23

[[record]]
molecule = "Cc1cc(=O)[nH]c2c1cc(C)c1occ(C)c12"
observed_property = "logP"
result_value = 3.13

[[record]]
molecule = "CCc1cccc(Nc2ccncc2S(=O)(=O)NC(=NC#N)NC(C)C)c1"
observed_property = "logP"
result_value = 2.4

[[record]]
molecule = "COc1cc2c(Nc3cc(CC(=O)Nc4cccc(F)c4F)[nH]n3)ncnc2cc1OCCCN(CCO)CC(C)C"
observed_property = "logP"
result_value = 5.2

[[record]]
molecule = "COc1ccc(C2Cc3cc(C(F)(F)F)ccc3N(CCN(C)C)C(=O)C2SC(C)=O)cc1 (configuration not stated)"
observed_property = "logP"
result_value = 5.4

[[record]]
molecule = "CC(C)(C)NC(=O)[C@@H]1CN(Cc2cccnc2)CCN1C[C@@H](O)C[C@@H](Cc1ccccc1)C(=O)N[C@H]1c2ccccc2C[C@H]1O"
observed_property = "logP"
result_value = 3.49


Take each entry in turn and give its logP.
1. CC(C)C(NC(=O)C(Cc1ccccc1)NC(=O)CNC(=O)CNC(=O)C(N)Cc1c[nH]c2ccccc12)C(=O)O (configuration not stated) (H-WGGFV-OH; configuration not given here)
2. COCc1c(O)c(=O)cc(C)n1C

RESULT:
1. -0.44
2. -0.42

====

OBSERVED PROPERTY: logP
One number for each entry.

[[record]]
compound = "CC(C)Nc1[nH]cnc2ncnc1-2"
result_value = 1.38

[[record]]
compound = "CC(C)CC(N)C(=O)NC(Cc1ccc(O)cc1)C(=O)O (centres undefined)"
result_value = -1.94

[[record]]
compound = "Cc1ccc(CO)c(C=NNC(=O)c2ccc(N)cc2)c1O"
result_value = 2.16


We next turn to a different compound, shown below.
Memo: COc1ccc2cc(C(C)C(=O)OCCCOC(C)=O)ccc2c1 (centres undefined) , reported logP: 3.3

====

Where a SMILES comes first, the peptide text is derived from it.
OBSERVED PROPERTY: logP
Numbers only.

Previously resolved entries follow.
[[record]]
compound = "Cc1c(C)c2cc3ccoc3cc2oc1=O"
result_value = 2.77

[[record]]
compound = "Cc1cccc(OCC2CN=C(N)O2)c1 (stereo unspecified)"
result_value = 1.75

[[record]]
compound = "CCOC(=O)C1=C(C)NC(C)=C(C(=O)OCC)C1c1cccc2c1OCO2"
result_value = 4.32

[[record]]
compound = "c1ccc(Nc2nnc(Cn3ccc4ccccc43)s2)cc1"
result_value = 3.47

[[record]]
compound = "CCOC(=O)c1ccc(N=NN(C)C(=O)OCOC(=O)C(C)NC(C)=O)cc1 (stereo unspecified)"
result_value = 2.73


# batch: return logP for each of the 3 compounds below
1. O=S1CCCC1
2. CCOC(=O)c1cn2c(C)c(C)nc2c2c1CCC(c1ccccc1)O2 (stereo unspecified)
3. O=C1N=C(N2CCCCC2)CN1c1ccc(Cl)cc1

RESULT:
-0.96
5.5
2.3

Hi, could you look up logP for each item in my list?
1. CCC(C)C(N)C(=O)NC(C(=O)NC(C(=O)O)C(C)O)C(C)CC (stereo not drawn) (H-Ile-Ile-Thr-OH; configuration not given here)
2. COc1ccc(Nc2nc(O)nc(NC(C)C)n2)cc1OC
3. COc1ccc(-c2cc(=O)ss2)cc1
4. Clc1cc(Cl)c(-c2cc(Cl)cc(Cl)c2Cl)c(Cl)c1
5. CC(C)CCCNc1[nH]cnc2ncnc1-2

RESULT:
1: -2.23; 2: 3.49; 3: 3.19; 4: 6.87; 5: 3.06

I'm hoping you can list logP for every compound here, please.
1. Brc1ccc(Br)c(N=C2NCCN2)c1
2. O=C1c2ccc(O)cc2OCN1CCO[N+](=O)[O-]
3. COC(=O)Sc1ncc(C=C(C(=O)OC)C(=O)OC)n1C
4. COc1cc2ccncc2cc1OC
5. Cc1cc2c(ccc3c(C)c(C)c(=O)n(C)c32)o1
6. Cc1c(O)c(=O)ccn1CCCOC(=O)c1cccnc1
7. CCCc1ccc(CNc2[nH]cnc3ncnc2-3)cc1

RESULT:
[2.71, 1.63, 0.49, 1.68, 3.54, -0.25, 3.72]

Kindly give each listed record's logP.
1. CC(C)CCCCCNc1[nH]cnc2ncnc1-2
2. CCN1CCCC1CNC(=O)c1c(OC)ccc(OC)c1O (stereo unspecified)

RESULT:
4.16
2.82

====

Where a SMILES comes first, the peptide text is derived from it.
OBSERVED PROPERTY: logP

Illustrative cases are given below, each with its answer.
[[record]]
molecule = "COc1ccc(-c2ccsc2)cc1CNC1CCCNC1c1ccccc1 (centres undefined)"
observed_property = "logP"
result_value = 4.8

[[record]]
molecule = "CC1CC2OC(=O)C(C)C2C(O)C2(C)C(=O)C=CC12 (centres undefined)"
observed_property = "logP"
result_value = 0.53

[[record]]
molecule = "O=C1c2cc([N+](=O)[O-])ccc2OCN1CCO[N+](=O)[O-]"
observed_property = "logP"
result_value = 1.66

[[record]]
molecule = "CC(C)=CC1C(C(=O)OCc2cccc(S(C)(=O)=O)c2)C1(C)C (centres undefined)"
observed_property = "logP"
result_value = 3.83

[[record]]
molecule = "CC(C)CC(NC(=O)CN)C(=O)NC(CC(C)C)C(=O)NCC(=O)NC(Cc1ccccc1)C(=O)O (centres undefined) (H-GLLGF-OH; configuration not given here)"
observed_property = "logP"
result_value = -0.18

[[record]]
molecule = "CN1C(C(=O)Nc2ccccn2)=C(O)c2sc(Cl)cc2S1(=O)=O"
observed_property = "logP"
result_value = 2.62

[[record]]
molecule = "CCOCCCNc1ncnc2c1ncn2C1OC(CO)C(O)C1O (centres undefined)"
observed_property = "logP"
result_value = 0.22

[[record]]
molecule = "CN1CCc2cccc(Cl)c2CC1"
observed_property = "logP"
result_value = 2.92

[[record]]
molecule = "CC(C)N(CCC(C(N)=O)c1ccccc1Cl)C(C)C (centres undefined)"
observed_property = "logP"
result_value = 2.83

[[record]]
molecule = "COc1ccc(CCNCC(O)COc2ccc(CCc3nc(Br)c[nH]3)cc2)cc1OC (centres undefined)"
observed_property = "logP"
result_value = 3


For every record below, what is its logP?
1. CC(C)CC(NC(=O)C(N)Cc1ccc(O)cc1)C(=O)NC(C(=O)O)C(C)C (stereo not drawn) (H-Tyr-Leu-Val-OH; configuration not given here)
2. CNc1ncnc2c1ncn2Cc1ccccc1F
3. ClCC1(C(Cl)Cl)C2CC(Cl)C1(C(Cl)Cl)CC2(Cl)Cl (centres undefined)

RESULT:
[-1.45, 1.86, 5.75]

// recorded logP for `CN1CCN(c2cc3c(cc2F)c(=O)c(C(=O)O)cn3C2CC2)CC1` : 0.15
